Target: T1, CD27 expressed on the cell surface of HT1080_CD27 cells (human, UniProt P26842 20-260)
T1 sequence (looked up): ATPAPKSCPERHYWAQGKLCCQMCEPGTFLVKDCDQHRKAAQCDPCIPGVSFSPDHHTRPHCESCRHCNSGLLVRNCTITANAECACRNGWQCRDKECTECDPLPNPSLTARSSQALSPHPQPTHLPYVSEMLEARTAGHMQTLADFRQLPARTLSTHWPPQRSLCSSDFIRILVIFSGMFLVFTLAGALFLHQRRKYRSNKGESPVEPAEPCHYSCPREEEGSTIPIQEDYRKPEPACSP
Assay: cell-based or functional assay

- binder: "P018.S.09.A.E05 (antibody, V domains shown) VH: QSLEESGGRLVTPGTPLTLTCTVSGIDLSRYDMSWVRQAPGKGLEWIGFIGASGSTYYASWVKGRFTISKTSTTVDLKITSPTTEDTATYFCAREETDSRGYYYSLWGPGTPVTVSS VL: ALVMTQTPASVEAAVGGTVTINCQASQSISDLLGWYQQKPGQPPKLLIYDASDLASGVPSRFSGSGSGTEFTLTISGVQSDDAATYYCQQGYSINNVDNAFGGGTEVVVK"
  EC 50 (IL-8 release, cross-linked) (µg/mL): 0.502
- binder: "P018.S.01.A.H06 (antibody, V domains shown) VH: QEQLKESGGRLVKPDETLTITCTASGFSLSRYDMSWVRQAPGKGLEWIGSIWSDGDTDYANWAKGRFTISKTSTTVDLKITSPTTEDTATYFCARGYTAWSLWGPGTLVTVSS VL: ALVMTQTPSPVSAAVGGTVTISCQSSESVVGNNALSWFQQKPGQPPKLLNYQASTLASGVSSRFSGSGSGTQFTLTISGVQSDDAATYYCQGTYYSSGWYFAFGGGTEVVVK"
  EC 50 (IL-8 release, cross-linked) (µg/mL): 2.35
- binder: "P018.S.09.A.A06 (antibody, V domains shown, V regions on human Ig constant parts; also called AB27_146) VH: QEQLKESGGGLVQPGESLTLTCTASGFSLSSYYMSWVRQAPGKGLEWIGMISTGGSAYYANWARGRFTISRTSTTVDLKVTSLTTEDTATYFCARGWRYEDLWGQGTLVTVSS VL: AQVLTQTPSPVSAAVGSTVTINCQSSQTVYNNNYLAWYQQKPGQPPKLLIYDASNLASGVSSRFSGSGSGTQFTLTISDLESDDAATYYCQGTYYDNAWYHTFGGGTEVVVK"
  EC 50 (IL-8 release, cross-linked) (µg/mL): 0.387
